system: TK-10 renal; assay: NCI tumour cell line growth inhibition, 48 h
# if value of TGI reaches 70 µM, tag rule met; if it stays below, tag rule not met

Worked examples follow.
>  <Molecule>
O=C(/C=C/c1ccc(Oc2cc(C(=O)/C=C/c3ccc(O)cc3)c(O)cc2O)cc1)c1ccc(O)cc1O

>  <Experimental Target>
TK-10 renal

>  <Qualitative Label>
rule not met

$$$$
>  <Molecule>
O=C(c1ccccc1)N(C(=O)c1ccccc1)c1nc(SCc2ccccc2)ns1

>  <Experimental Target>
TK-10 renal

>  <Qualitative Label>
rule met

$$$$
>  <Molecule>
CC1(c2ccccc2Cl)C(C#N)C(=O)NC(=O)C1C#N (centres undefined)

>  <Experimental Target>
TK-10 renal

>  <Qualitative Label>
rule met

$$$$
>  <Molecule>
CCCCCCCC1(N=[N+]=[N-])C(=O)Nc2ccccc2C1=O (centres undefined)

>  <Experimental Target>
TK-10 renal

>  <Qualitative Label>
rule not met

$$$$
>  <Molecule>
COc1cc2c(c(O)c1OC)C(=O)[C@@H]1CCC(=O)N1C2

>  <Experimental Target>
TK-10 renal

>  <Qualitative Label>
rule met

$$$$
>  <Molecule>
CCOC(=O)c1c(C)n(-c2ccc(Cl)cc2)c2c1cc(O)c1[nH]c3c(c12)CCCC3

>  <Experimental Target>
TK-10 renal

>  <Qualitative Label>
rule met

$$$$
>  <Molecule>
Cc1cc(C)nc(NS(=O)(=O)c2ccc(Nc3c4ccccc4nc4c(C(=O)Nc5ccc(S(=O)(=O)N=C(N)N)cc5)cccc34)cc2)n1

>  <Experimental Target>
TK-10 renal

>  <Qualitative Label>
rule met

$$$$

With those in mind, consider the next molecule.
Exercise: Please indicate if the recorded TGI for OC(C#Cc1ccccc1)(c1ccccc1)c1ccccc1 meets or exceeds 70 µM.
Solution: rule met
